The values you see were collected from patent US12447153B2.

SYSTEM UNDER TEST: BCRP (Homo sapiens (Human))
Sequence (Q9UNQ0 whole entry): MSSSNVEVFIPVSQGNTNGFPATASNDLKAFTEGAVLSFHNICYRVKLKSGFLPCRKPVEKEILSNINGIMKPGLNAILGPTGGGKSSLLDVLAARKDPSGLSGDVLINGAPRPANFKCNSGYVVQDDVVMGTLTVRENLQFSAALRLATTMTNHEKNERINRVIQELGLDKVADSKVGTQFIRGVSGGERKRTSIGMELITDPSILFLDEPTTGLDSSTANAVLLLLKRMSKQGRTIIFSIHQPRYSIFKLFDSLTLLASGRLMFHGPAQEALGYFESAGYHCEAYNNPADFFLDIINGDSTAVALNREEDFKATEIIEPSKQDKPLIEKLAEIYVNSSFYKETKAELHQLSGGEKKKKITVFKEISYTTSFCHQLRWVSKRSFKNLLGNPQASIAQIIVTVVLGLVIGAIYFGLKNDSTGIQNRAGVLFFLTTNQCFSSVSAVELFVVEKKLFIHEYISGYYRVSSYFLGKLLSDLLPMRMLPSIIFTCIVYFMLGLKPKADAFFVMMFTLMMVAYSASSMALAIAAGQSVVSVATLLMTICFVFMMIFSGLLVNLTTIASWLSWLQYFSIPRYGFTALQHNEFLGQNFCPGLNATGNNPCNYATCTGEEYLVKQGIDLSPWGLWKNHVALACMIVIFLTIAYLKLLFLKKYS
ASSAY METHOD TEXT: BCRP MDCKII efflux assay (Assay 7)
Format: in vitro ADME
SETTINGS: dog; efflux ratio Papp(B-A)/Papp(A-B), BCRP MDCKII cells; read-out: Assay 7 Pe Ratio
Please respond with TRUE when measured efflux ratio at 2 h, 1 µM is strictly beneath 3, and with FALSE in all other cases.

Is efflux ratio at 2 h, 1 µM of `C=CC(=O)N1CCC(Oc2ccc3ncnc(Nc4ccc(Oc5ccn6ncnc6c5)c(C)c4)c3n2)CC1` strictly below 3?
FALSE

Is efflux ratio at 2 h, 1 µM of `C=CC(=O)N1CCN(c2ccc3ncnc(Nc4ccc(Oc5ccn6ncnc6c5)c(C)c4)c3n2)CC1(C)C` strictly below 3?
FALSE

Is efflux ratio at 2 h, 1 µM of C#CC1CN(c2ccc3ncnc(Nc4ccc(Oc5ccn6ncnc6c5)c(C)c4F)c3n2)CCN1C(=O)C=C (stereo not drawn) strictly below 3?
FALSE

Is efflux ratio at 2 h, 1 µM of `C=CC(=O)N1CCN(c2ccc3ncnc(Nc4cc(Cl)c(Oc5ccn6ncnc6c5)cc4F)c3n2)C[C@@H]1C1CC1` strictly below 3?
TRUE

---

SYSTEM UNDER TEST: EGFR wild type (EGFR WT) (Homo sapiens (Human), UniProt P00533)
Sequence (P00533 25-1210): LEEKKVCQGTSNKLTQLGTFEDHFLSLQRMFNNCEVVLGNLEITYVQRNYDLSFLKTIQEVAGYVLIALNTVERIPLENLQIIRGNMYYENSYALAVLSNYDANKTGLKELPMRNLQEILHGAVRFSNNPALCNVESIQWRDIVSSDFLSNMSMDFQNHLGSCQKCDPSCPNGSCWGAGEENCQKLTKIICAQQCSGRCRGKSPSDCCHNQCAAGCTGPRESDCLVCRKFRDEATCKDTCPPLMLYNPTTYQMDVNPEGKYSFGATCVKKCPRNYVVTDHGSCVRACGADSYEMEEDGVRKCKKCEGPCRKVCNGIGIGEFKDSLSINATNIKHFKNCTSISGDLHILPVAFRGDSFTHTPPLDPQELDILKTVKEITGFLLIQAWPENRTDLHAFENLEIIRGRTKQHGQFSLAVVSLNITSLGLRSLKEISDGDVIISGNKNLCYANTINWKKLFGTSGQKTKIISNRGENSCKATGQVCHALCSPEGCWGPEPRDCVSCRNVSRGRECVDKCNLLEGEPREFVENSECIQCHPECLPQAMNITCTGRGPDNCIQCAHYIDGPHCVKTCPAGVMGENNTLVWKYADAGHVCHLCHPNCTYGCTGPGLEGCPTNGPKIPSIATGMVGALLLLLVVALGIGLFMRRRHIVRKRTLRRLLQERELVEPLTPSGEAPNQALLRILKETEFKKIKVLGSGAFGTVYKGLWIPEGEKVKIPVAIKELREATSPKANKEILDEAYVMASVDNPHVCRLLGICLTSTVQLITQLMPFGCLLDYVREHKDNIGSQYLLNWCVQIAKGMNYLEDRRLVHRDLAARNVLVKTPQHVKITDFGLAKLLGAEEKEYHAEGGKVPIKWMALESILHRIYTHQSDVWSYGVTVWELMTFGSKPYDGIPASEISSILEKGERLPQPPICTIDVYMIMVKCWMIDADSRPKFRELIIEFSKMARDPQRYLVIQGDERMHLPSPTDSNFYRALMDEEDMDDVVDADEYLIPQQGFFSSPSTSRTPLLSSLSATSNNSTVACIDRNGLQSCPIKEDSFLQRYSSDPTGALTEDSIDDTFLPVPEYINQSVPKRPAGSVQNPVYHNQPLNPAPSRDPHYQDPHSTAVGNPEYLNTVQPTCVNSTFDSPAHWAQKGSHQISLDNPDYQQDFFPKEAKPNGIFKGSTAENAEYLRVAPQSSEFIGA
ASSAY METHOD TEXT: Cellular Phosphorylation Assay, Assay 5 (EGF-stimulated EGFR phosphorylation, NIH 3T3 cells)
Type: cell-based
SETTINGS: EGF-stimulated EGFR WT phosphorylation
pIC50: −log10 of the molar value.
OUTCOME MEASURE: pIC50

Recorded results for 5 compounds are shown here.
C=CC(=O)N1CCC(c2ccc3ncnc(Nc4ccc(Oc5ccc6c(c5)ncn6C)c(C)c4F)c3n2)CC1 | ≤ 5.30
C=CC(=O)N1CC2CCC(C1)N2c1ccc2ncnc(Nc3ccc(Oc4cnc5c(c4)ncn5C)c(C)c3F)c2n1 | 6.50
C=CC(=O)N1CCCN(c2ccc3ncnc(Nc4ccc(Oc5cnc6c(c5)ncn6C)c(C)c4)c3n2)CC1 | ≤ 5.30
C=CC(=O)N1[C@H]2CC[C@@H]1[C@@H](c1ccc3ncnc(Nc4ccc(Oc5ccn6ncnc6c5)c(C)c4F)c3n1)C2 (single isomer, unassigned) | ≤ 5.30
C=CC(=O)N1CCCC(c2ccc3ncnc(Nc4ccc(Oc5ccn6ncnc6c5)c(C)c4F)c3n2)CC1 (stereo not shown) | 5.75

Return reported pIC50 values for all items listed beneath this line.
1. C=CC(=O)N1C[C@@H]2C[C@H]1CN(c1ccc3ncnc(Nc4cc(Cl)c(Oc5ccc6c(c5)ncn6C)cc4F)c3n1)C2
2. C=CC(=O)N1C[C@H]2C[C@@H]1CN2c1ccc2ncnc(Nc3ccc(Oc4ccn5ncnc5c4)c(C)c3F)c2n1

["≤ 5.30", "≤ 5.30"]

---

SYSTEM UNDER TEST: EGFR (Homo sapiens (Human), UniProt P00533)
Sequence (P00533 25-1210): as above
ASSAY METHOD TEXT: ErbB Enzyme Assay (HTRF KinEASE-TK), Assay 3
Type: biochemical
SETTINGS: EGFR enzyme assay
OUTCOME MEASURE: IC50

C=CC(=O)N1CC[C@H]2C[C@@H]1CN2c1ccc2ncnc(Nc3cc(Cl)c(Oc4ccn5ncnc5c4)cc3F)c2n1 [Example 439] | ≥ 10 µM
C=CC(=O)N1CCN(c2ccc3ncnc(Nc4ccc(Oc5ccn6ncnc6c5)c(C)c4F)c3n2)C[C@@H]1C(C)C [Example 266] | ≥ 10 µM
C=CC(=O)N1C[C@H]2CC[C@@H]1C[C@H]2c1ccc2ncnc(Nc3cc(C)c(Oc4cnc5c(c4)ncn5C)cc3F)c2n1 [Example 421] | ≥ 10 µM
C=CC(=O)N1CCN(c2ccc3ncnc(Nc4cc(F)c(Oc5ccn6ncnc6c5)cc4F)c3n2)CC1(C)C [Example 453] | ≥ 10 µM
C=CC(=O)N1C[C@@H]2CN(c3ccc4ncnc(Nc5ccc(Oc6ccc7c(c6)ncn7C)c(C)c5F)c4n3)C[C@@H]21 [Example 323] | ≥ 10 µM

I would be grateful if you could share the reported IC50 for C=CC(=O)N1[C@H]2CC[C@@H]1[C@H](c1ccc3ncnc(Nc4cc(C)c(Oc5ccn6ncnc6c5)cc4F)c3n1)CC2 [Example 428] .
1.48 µM
